Recorded AC50 values (UniProt:P23975) are given below.
Sequence (P23975 whole entry): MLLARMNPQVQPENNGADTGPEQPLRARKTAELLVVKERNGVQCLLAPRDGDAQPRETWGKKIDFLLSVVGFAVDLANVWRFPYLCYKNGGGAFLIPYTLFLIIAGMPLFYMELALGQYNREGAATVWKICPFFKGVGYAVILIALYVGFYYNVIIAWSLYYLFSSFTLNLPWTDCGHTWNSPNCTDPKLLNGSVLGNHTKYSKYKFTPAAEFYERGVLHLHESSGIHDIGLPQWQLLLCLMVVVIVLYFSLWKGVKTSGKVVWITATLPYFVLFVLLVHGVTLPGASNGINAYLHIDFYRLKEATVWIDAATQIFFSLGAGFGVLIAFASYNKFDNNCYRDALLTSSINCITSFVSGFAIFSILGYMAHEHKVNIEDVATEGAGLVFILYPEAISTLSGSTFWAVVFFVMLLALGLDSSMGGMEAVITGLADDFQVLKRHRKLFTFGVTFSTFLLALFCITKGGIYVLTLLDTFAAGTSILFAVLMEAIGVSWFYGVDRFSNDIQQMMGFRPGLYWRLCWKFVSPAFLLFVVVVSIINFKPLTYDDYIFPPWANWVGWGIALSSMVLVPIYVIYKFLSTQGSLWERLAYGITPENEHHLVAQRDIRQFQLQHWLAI

| compound | AC50 |
| --- | --- |
| c1ccc2c(SC3=NCCN3)c[nH]c2c1 | 5.56 µM |
| CC(=O)NO [ACETOHYDROXAMIC ACID] | > 30 µM |
| CC(C)C(=O)Oc1ccc(CO)cc1[C@H](CCN(C(C)C)C(C)C)c1ccccc1 | > 30 µM |
| NC(=O)[C@@H]1CC[C@@H]2CN1C(=O)N2OS(=O)(=O)O | > 30 µM |
| CC[C@@H]1C[C@]1(NC(=O)[C@@H]1C[C@@H]2CN1C(=O)[C@H](C(C)(C)C)NC(=O)OCC(C)(C)CCCCc1cccc3c1CN(C3)C(=O)O2)C(=O)NS(=O)(=O)C1CC1 | > 30 µM |

Item: CC(=O)O[C@H]1Cc2ccccc2N(C(N)=O)c2ccccc21 [ESLICARBAZEPINE ACETATE] Test system: UniProt:P23975 Read-out: AC50 Value: ?
> 30 µM

Item: `N=C(N)N/N=C/c1c(Cl)cccc1Cl` Test system: UniProt:P23975 Read-out: AC50 Value: ?
8.81 µM

Item: Cc1ncc2c(c1O)COC2c1ccc(Cl)cc1 (centres undefined) Test system: UniProt:P23975 Read-out: AC50 Value: ?
> 30 µM

Item: `O=C(O)Cc1ccccc1Nc1c(Cl)cccc1Cl` Test system: UniProt:P23975 Read-out: AC50 Value: ?
> 3 µM
